- Tested on: CAKI-1
- METHOD NOTES: NCI tumour cell line growth inhibition, 48 h
Activity calls are given as the source filed them. Cut-off read from the data, not from the text of the source: active = GI50 up to about 1.1 µM and inactive = higher.
# GI50 values compiled below

- COMPOUND: "Nc1ccc(S(=O)(=O)Nc2nnc(S(N)(=O)=O)s2)cc1"
  REPORTED VALUE: "> 100 µM (inactive)"
- COMPOUND: "CC(Oc1ccc(Oc2cnc3ccc(Cl)cc3n2)cc1)C(=O)O (stereo not drawn)"
  REPORTED VALUE: "> 100 µM (inactive)"
- COMPOUND: "C/C(=N\\NC(=[Se])N1CCN(c2ccccn2)CC1)c1ccccn1"
  REPORTED VALUE: "2.65 µM (inactive)"
- COMPOUND: "CS(=O)(=O)Nc1ccc2c(c1)N(S(C)(=O)=O)CC2CCl (stereo not drawn)"
  REPORTED VALUE: "> 100 µM (inactive)"
- COMPOUND: "COc1cc2c3c(c1OC)-c1ccccc1C(C(OC(C)=O)c1ccccc1)C3N(C)CC2 (stereo not drawn)"
  REPORTED VALUE: "63 µM (inactive)"
- COMPOUND: "COC(=O)[C@](C)(Cc1ccccc1)NC(=O)[C@@H](C)N1[C@@H](c2ccccc2)COC1(C)C"
  REPORTED VALUE: "82.2 µM (inactive)"
- COMPOUND: "C/C(=C(/C)c1ccc(O)cc1)c1ccc(O)cc1"
  REPORTED VALUE: "37 µM (inactive)"
- COMPOUND: "Nc1nccc(NCC2(CO)CC(OCc3ccccc3)C2)n1 (stereo not drawn)"
  REPORTED VALUE: "> 100 µM (inactive)"

Give reported GI50 value for `O=C(c1cc(Cl)cc(Cl)c1)N(C(=S)OC12CC3CC(CC(C3)C1)C2)c1ccccc1`
42.1 µM (inactive)
